Reference source for all entries: paper PMC9282233

Target: Tsr (E. coli serine chemoreceptor) (Escherichia coli, UniProt P02942)
Sequence (P02942 whole entry): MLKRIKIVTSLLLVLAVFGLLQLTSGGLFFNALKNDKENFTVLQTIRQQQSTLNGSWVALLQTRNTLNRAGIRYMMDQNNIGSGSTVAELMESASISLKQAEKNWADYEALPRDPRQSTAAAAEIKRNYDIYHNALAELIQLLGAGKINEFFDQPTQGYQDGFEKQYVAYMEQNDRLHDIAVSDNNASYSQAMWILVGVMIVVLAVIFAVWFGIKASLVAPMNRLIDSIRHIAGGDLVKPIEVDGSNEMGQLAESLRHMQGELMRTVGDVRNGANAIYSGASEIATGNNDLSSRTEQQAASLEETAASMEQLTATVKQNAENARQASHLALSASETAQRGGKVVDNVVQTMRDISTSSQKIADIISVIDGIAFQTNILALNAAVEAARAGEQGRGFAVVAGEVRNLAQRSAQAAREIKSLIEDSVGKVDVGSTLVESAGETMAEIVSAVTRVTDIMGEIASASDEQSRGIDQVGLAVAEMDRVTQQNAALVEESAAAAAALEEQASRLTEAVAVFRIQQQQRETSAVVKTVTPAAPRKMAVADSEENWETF
Assay details: in vivo FRET kinase assay
Measured property: pIC50
Please report pIC50 as the negative decimal logarithm of the molar concentration, giving only the number.

Exercise: Recorded pIC50 of `N[C@@H](CO)C(=O)O` , please.
Key: 4.74
